Molecular target: human FGFR1c + KLB receptor complex on HEK293 iLite FGF21 reporter cells (human, UniProt P11362 22-822; Q86Z14 1-1044)
Sequence (P11362 22-822, chain 1 of 2): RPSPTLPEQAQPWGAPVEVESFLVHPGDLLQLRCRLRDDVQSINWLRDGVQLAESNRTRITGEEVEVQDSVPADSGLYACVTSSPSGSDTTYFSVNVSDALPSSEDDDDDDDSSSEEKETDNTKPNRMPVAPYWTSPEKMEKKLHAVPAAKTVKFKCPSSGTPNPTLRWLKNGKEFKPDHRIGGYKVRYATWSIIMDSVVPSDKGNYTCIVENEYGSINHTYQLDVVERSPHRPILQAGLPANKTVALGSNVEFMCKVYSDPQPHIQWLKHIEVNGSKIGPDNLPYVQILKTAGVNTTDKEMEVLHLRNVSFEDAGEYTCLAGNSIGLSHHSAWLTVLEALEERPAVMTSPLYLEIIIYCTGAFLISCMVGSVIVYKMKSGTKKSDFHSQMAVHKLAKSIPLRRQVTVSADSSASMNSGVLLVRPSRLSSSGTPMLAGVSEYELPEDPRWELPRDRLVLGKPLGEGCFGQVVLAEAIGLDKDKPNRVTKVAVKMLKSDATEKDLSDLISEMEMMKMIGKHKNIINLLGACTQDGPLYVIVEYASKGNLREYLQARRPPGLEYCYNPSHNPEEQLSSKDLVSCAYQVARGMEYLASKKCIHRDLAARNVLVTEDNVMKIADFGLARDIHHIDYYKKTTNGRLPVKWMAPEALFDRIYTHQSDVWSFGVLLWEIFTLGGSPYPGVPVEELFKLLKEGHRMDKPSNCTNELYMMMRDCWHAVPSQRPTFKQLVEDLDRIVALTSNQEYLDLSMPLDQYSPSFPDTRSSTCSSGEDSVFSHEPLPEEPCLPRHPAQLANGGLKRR
Sequence (Q86Z14 whole entry, chain 2 of 2): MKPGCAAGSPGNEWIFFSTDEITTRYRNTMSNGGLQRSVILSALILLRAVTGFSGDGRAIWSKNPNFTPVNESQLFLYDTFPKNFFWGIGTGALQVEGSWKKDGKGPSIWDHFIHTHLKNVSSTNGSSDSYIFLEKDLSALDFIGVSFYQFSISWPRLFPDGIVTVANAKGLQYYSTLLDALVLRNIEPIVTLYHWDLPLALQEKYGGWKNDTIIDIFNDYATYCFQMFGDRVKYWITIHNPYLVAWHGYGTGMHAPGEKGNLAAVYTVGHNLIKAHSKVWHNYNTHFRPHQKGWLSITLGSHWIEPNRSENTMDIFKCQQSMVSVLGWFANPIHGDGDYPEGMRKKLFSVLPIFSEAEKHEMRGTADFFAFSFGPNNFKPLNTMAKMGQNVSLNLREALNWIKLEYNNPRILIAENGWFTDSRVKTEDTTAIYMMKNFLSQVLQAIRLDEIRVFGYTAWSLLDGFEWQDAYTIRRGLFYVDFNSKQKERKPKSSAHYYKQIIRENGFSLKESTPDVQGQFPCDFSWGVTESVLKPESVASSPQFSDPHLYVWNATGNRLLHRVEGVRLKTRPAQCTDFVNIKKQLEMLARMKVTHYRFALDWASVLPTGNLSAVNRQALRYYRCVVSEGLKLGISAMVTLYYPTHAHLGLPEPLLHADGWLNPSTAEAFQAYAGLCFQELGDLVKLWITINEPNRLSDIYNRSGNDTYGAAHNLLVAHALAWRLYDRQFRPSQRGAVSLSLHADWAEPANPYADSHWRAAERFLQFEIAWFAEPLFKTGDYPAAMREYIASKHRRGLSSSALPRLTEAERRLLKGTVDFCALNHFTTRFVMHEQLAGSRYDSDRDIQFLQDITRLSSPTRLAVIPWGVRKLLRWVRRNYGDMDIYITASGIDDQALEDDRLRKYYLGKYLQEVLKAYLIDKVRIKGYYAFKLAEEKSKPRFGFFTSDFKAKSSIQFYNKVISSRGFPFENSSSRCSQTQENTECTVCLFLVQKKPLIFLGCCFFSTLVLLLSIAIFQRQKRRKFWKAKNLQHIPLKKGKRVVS
Test: cell-based or functional assay
Give True when the value for Emax is at least 700%. Give False when it is less.

Lookup: Please indicate if the recorded Emax for Ab0333 (antibody, IgG4, V domains shown, IgG4 PE) VH: QVTLKESGPVLVKPTETLTLTCTVSGFSLNNARVGVSWIRQPPGKALEWLAHIFSNDEKSYSTSLKSRLTISKDTSKSQVVLTMTNMDPVDTATYYCARSVVTGGYYYEGMDVWGQGTTVTVSS VL: SYVLTQPPSVSVAPGQTARITCGGSNIGSESVHWYQQKPGQAPVLVVYSYSDRPSGIPERFSGSNSGNTATLTISRVEAGDEADYYCQVWAGSSDHVVFGGGTKLTVLG meets or exceeds 700%.
Found: True

Lookup: Please indicate if the recorded Emax for Ab0314 (antibody, IgG4, V domains shown, IgG4 PE) VH: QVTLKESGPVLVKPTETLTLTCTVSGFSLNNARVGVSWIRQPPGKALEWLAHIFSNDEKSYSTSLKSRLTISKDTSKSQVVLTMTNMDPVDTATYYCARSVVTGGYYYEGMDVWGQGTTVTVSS VL: SYVLTQPPSVSVAPGQTARITCGGSNIGSESVHWYQQKPGQAPVLVVYDDSDRPSGIPERFSGSNSGNTATLTISRVEAGDEADYYCQVWTGESDHVVFGGGTKLTVLG meets or exceeds 700%.
Found: True

Lookup: Please indicate if the recorded Emax for Ab0339 (antibody, IgG4, V domains shown) VH: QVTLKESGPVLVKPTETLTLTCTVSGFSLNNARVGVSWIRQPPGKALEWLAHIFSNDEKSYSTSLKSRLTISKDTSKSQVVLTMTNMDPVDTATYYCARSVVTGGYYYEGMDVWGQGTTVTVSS VL: SYVLTQPPSVSVAPGQTARITCGGSNIGSESVHWYQQKPGQAPVLVVYAESDRPSGIPERFSGSNSGNTATLTISRVEAGDEADYYCQVWAGSSDHVVFGGGTKLTVLG meets or exceeds 700%.
Found: False

Lookup: Please indicate if the recorded Emax for Ab0343 (antibody, IgG4, V domains shown) VH: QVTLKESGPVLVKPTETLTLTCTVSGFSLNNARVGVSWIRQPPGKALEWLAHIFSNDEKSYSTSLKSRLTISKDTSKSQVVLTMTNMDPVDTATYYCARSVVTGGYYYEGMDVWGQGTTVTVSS VL: SYVLTQPPSVSVAPGQTARITCGGSNIGSESVHWYQQKPGQAPVLVVYAASDRPSGIPERFSGSNSGNTATLTISRVEAGDEADYYCQVWAGSSDHVVFGGGTKLTVLG meets or exceeds 700%.
Found: False
